# Read-out: Lipoprotein lipase (LPL), LPL (gene 4023)
# assayText: LTEA_HepaRG_LPL: Life Technologies and Expression Analysis (LTEA) Assay for Lipoprotein lipase (LPL) using HepaRG (AID 2283515)
# assayContext: mRNA level, 48 h; actives raise or lower the signal
The source made the active and inactive calls. Rule for the calls: active = hit-call score of the fitted dose curve at least 0.9, where 1 is the maximum; inactive = score below 0.9.
Outcome codes: True for active, False for inactive

# molecule, assignedLabel
rows = [
    ("CC(N)=O", "False"),
    ("CN(C)C(=O)NC1(c2ccccc2)CCN(CC[C@@]2(c3ccc(F)c(F)c3)CN(C(=O)c3ccccc3)CCO2)CC1", "True"),
    ("c1ccc2occc2c1", "False"),
    ("CC(C)NCC(O)c1ccc(O)c(O)c1 (stereo not given)", "True"),
    ("CC1(C)C(=O)NC(=O)N1CO", "False"),
    ("Cc1occc(=O)c1O", "False"),
    ("CN(C)CCCN(C)CCCN(C)C", "False"),
    ("O=C1O[C@H]([C@H](O)CO)C(O)=C1O", "False"),
    ("NC1CCCCC1", "False"),
    ("O=Cc1ccccc1C=O", "False"),
    ("CCCC(=O)O", "False"),
    ("O=C1NC(=O)C(c2ccccc2)(c2ccccc2)N1", "False"),
    ("Cc1cc(Cc2ccc(N)c(C)c2)ccc1N", "False"),
    ("O=C(Oc1ccccc1)c1cccc(C(=O)Oc2ccccc2)c1", "False"),
    ("C=CCCCCCCCCCCCC", "False"),
    ("CCCCc1nc2cccnc2n1Cc1ccc(-c2ccccc2-c2nnn[nH]2)cc1", "False"),
    ("Cc1ccc(C(C)(C)C)c(O)c1", "False"),
    ("O=C1CCCCC1", "False"),
    ("CN(C)CCCN1c2ccccc2Sc2ccc(Cl)cc21", "False"),
    ("Cc1cn([C@H]2C=C[C@@H](CO)O2)c(=O)[nH]c1=O", "False"),
]

====

# Read-out: growth arrest and DNA damage 45 (GADD45B), GADD45B (gene 4616)
# assayText: LTEA_HepaRG_GADD45B: Life Technologies and Expression Analysis (LTEA) Assay for growth arrest and DNA damage 45 (GADD45B) using HepaRG (AID 2283461)
# assayContext: mRNA level, 48 h; actives raise or lower the signal
The source made the active and inactive calls. The calls were made as follows: active = hit-call score of the fitted dose curve at least 0.9, where 1 is the maximum; inactive = score below 0.9.
Possible outcomes: class 1 = active, class 0 = inactive

# molecule, assignedLabel
data = [
    ("O=NO", "class 0"),
    ("Cc1c(C)c2c(c(C)c1O)CCC(C)(COc1ccc(CC3SC(=O)NC3=O)cc1)O2 (stereo not drawn)", "class 1"),
    ("CC(=O)OCC(COC(C)=O)OC(C)=O", "class 0"),
    ("O=C1OC(c2ccc(O)cc2)(c2ccc(O)cc2)c2ccccc21", "class 0"),
    ("CO[C@@H]1COCC[C@@H]1N[C@@H]1CC[C@@](C(=O)N2CCc3ncc(C(F)(F)F)cc3C2)(C(C)C)C1", "class 0"),
    ("O=C1c2c(O)cccc2Cc2cccc(O)c21", "class 0"),
    ("Cc1ccc(C(C)(C)C)c(O)c1", "class 0"),
    ("CCc1cc(C2=C(C(=O)O)N(c3ccccc3C(F)(F)F)S(=O)(=O)c3ccccc32)cc2c1OCO2", "class 0"),
    ("C#CC(O)C(CC)CCCC (stereo not drawn)", "class 0"),
    ("Cc1cc(SC2=C(O)C[C@@](CCc3ccc(N)cc3)(C(C)C)OC2=O)c(C(C)(C)C)cc1CO", "class 0"),
    ("Nc1nc(Cl)nc2c1ncn2[C@H]1C[C@H](O)[C@@H](CO)O1", "class 1"),
    ("CCCCCCC(CCCCCCCCCCC(=O)OCC(COC(C)=O)OC(C)=O)OC(C)=O (stereo not drawn)", "class 0"),
    ("O=C(NS(=O)(=O)/C=C/c1cccs1)c1ccc(F)cc1Br", "class 0"),
    ("O=C1NC(=O)C(c2ccccc2)(c2ccccc2)N1", "class 0"),
    ("C=CCCCCCCCCCCCC", "class 0"),
    ("CCCC(=O)O", "class 0"),
    ("S=c1[nH]c2ccccc2s1", "class 0"),
    ("CN(C)CCCN(C)CCCN(C)C", "class 0"),
    ("CCCCCCCCCCCCCCOS(=O)(=O)O", "class 0"),
    ("Cc1cn([C@H]2C=C[C@@H](CO)O2)c(=O)[nH]c1=O", "class 0"),
    ("COc1ccc(OC(F)(F)F)cc1CN[C@H]1CCCN[C@H]1c1ccccc1", "class 0"),
    ("NCCOCCOCCN", "class 0"),
    ("CS(=O)(=O)c1ccc([C@@H](C[C@H]2CCC(=O)C2)C(=O)Nc2cnccn2)cc1Cl", "class 0"),
    ("CC(=O)O", "class 0"),
    ("CC1=C(C)S(=O)(=O)CCS1(=O)=O", "class 1"),
    ("CC(=O)OC1CC(C)OC(C)O1 (stereo not drawn)", "class 0"),
    ("O=C(Oc1ccccc1)c1cccc(C(=O)Oc2ccccc2)c1", "class 0"),
    ("CC(C)(C)c1ccccc1", "class 0"),
    ("CN(C)CCCN1c2ccccc2Sc2ccc(Cl)cc21", "class 1"),
    ("CN(C)C(=O)NC1(c2ccccc2)CCN(CC[C@@]2(c3ccc(F)c(F)c3)CN(C(=O)c3ccccc3)CCO2)CC1", "class 0"),
    ("O=Cc1ccccc1C=O", "class 0"),
    ("CCC(C)N(C)C(=O)c1cc2ccccc2c(-c2ccccc2Cl)n1 (stereo not drawn)", "class 0"),
    ("CC(=O)[C@@]1(O)CC[C@H]2[C@@H]3CCC4=CC(=O)CC[C@]4(C)[C@H]3CC[C@@]21C", "class 0"),
]

====

# assayedTarget: Estrogen receptor beta (Homo sapiens) (UniProt Q92731)
# Sequence (Q92731 whole entry, looked up, the tested form may be a part): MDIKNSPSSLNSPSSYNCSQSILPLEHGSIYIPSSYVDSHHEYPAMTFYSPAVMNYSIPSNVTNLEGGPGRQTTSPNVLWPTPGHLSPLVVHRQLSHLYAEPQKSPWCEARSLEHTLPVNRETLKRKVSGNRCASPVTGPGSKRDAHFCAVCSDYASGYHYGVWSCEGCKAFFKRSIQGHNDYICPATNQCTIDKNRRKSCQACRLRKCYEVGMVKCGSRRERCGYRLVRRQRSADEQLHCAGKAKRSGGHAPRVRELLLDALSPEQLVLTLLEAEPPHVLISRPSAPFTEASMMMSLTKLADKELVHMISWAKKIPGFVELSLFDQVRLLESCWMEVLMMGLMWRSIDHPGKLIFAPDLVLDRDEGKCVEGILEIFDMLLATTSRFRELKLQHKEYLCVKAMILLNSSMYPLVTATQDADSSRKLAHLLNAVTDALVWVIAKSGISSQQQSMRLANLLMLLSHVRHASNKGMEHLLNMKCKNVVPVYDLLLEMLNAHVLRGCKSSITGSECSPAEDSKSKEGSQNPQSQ
# assayText: OT_ER_ERbERb_1440: Odyssey Thera (OT) 24-hour HEK293T Protein-Complementation Assay for Estrogen Receptor-beta/-beta Homodimer (AID 2283380);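 note: fluorescence gain from ER beta LBD homodimer complementation read by laser scanning cytometry; scored as signal increase over DMSO baseline for both agonists and antagonists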
Activity calls are given as the source filed them. The calls were made as follows: active = hit-call score of the fitted dose curve at least 0.9, where 1 is the maximum; inconclusive = response in the unintended direction; inactive = score below 0.9.
Possible outcomes: active, inactive

# molecule, assignedLabel
data = [
    ("CCCCC(CC)CO (stereo not drawn)", "inactive"),
    ("Oc1ccccc1O", "active"),
    ("CCCCCCCC(=O)OC", "inactive"),
    ("NCCOCCOCCN", "inactive"),
    ("CC1=C(C)S(=O)(=O)CCS1(=O)=O", "inactive"),
    ("CN(C)CCCN(C)CCCN(C)C", "inactive"),
    ("CN(C)C(=O)NC1(c2ccccc2)CCN(CCC[C@]2(c3ccc(Cl)c(Cl)c3)CCCN(C(=O)c3ccccc3)C2)CC1", "inactive"),
    ("CN(C)CCCN1c2ccccc2Sc2ccc(Cl)cc21", "inactive"),
]

====

# assayText: ATG_AP_1_CIS: Attagene CIS-FACTORIAL HepG2 Assay for human Activator Protein 1 (AP-1) (AID 2282931)
# assayContext: HepG2 Attagene cis-factorial AP-1 reporter mRNA; actives raise or lower the signal
The source made the active and inactive calls. How the source made its calls: active means hit-call score of the fitted dose curve at least 0.9, where 1 is the maximum; inactive means score below 0.9.
Outcome codes: Yes (active), No (inactive)

# compound, assignedLabel
rows = [
    ("NC=O", "No"),
    ("CN(C)CCCN(C)CCCN(C)C", "No"),
    ("CC(C)c1cccc(C(C)C)c1NC(=O)NS(=O)(=O)c1cc(C(C)(C)O)co1", "No"),
    ("CS(=O)(=O)c1ccc([C@@H](C[C@H]2CCC(=O)C2)C(=O)Nc2cnccn2)cc1Cl", "No"),
    ("CCCCCCC(CCCCCCCCCCC(=O)OCC(COC(C)=O)OC(C)=O)OC(C)=O (stereo not drawn)", "No"),
    ("CC1=C(C)S(=O)(=O)CCS1(=O)=O", "Yes"),
    ("CC(=O)[C@@]1(O)CC[C@H]2[C@@H]3CCC4=CC(=O)CC[C@]4(C)[C@H]3CC[C@@]21C", "No"),
    ("NC1CCCCC1", "No"),
    ("CCc1nc(N)nc(N)c1-c1ccc(Cl)cc1", "Yes"),
    ("O=Cc1ccccc1C=O", "No"),
    ("CCCC(=O)O", "No"),
    ("Cc1c(C)c2c(c(C)c1O)CCC(C)(COc1ccc(CC3SC(=O)NC3=O)cc1)O2 (stereo not drawn)", "Yes"),
    ("Cc1cc(Cc2ccc(N)c(C)c2)ccc1N", "No"),
    ("CCCCc1nc2cccnc2n1Cc1ccc(-c2ccccc2-c2nnn[nH]2)cc1", "No"),
    ("CCCCCCCC(=O)OC", "No"),
    ("O=C(NS(=O)(=O)/C=C/c1cccs1)c1ccc(F)cc1Br", "No"),
    ("CCC(C)N(C)C(=O)c1cc2ccccc2c(-c2ccccc2Cl)n1 (stereo not drawn)", "Yes"),
    ("C/C=C/c1ccc(OC)cc1", "No"),
]
